meta.source: the supplement of paper PMC10724198

tested on: Saccharomyces cerevisiae; test: protein stability index of tFT-peptide fusion in wild type (PSI (0-1 scale)); higher = more stable (slower turnover); conditions: genetic background: wild type;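 note: PSI derived as read-weighted mean over the 8 sorting bins, only variants exceeding 10 total reads kept, mCherry placed adjacent to the peptide and sfGFP distal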
Listed below: protein stability index values for each entry.
When you answer, write just the number.

Example results:
item_sequence=PSLAASFWRCVG recorded_endpoint="protein stability index" recorded_value=0.144
item_sequence=VRGAVGGNRLVG recorded_endpoint="protein stability index" recorded_value=0.681
item_sequence=TKILRQKMNHQN recorded_endpoint="protein stability index" recorded_value=0.148

Find protein stability index (Saccharomyces cerevisiae) for the entry `GLYMCWVGCWFR`
0.182

Find protein stability index (Saccharomyces cerevisiae) for the entry `VRGAVGGWRTVG`
0.157
